# experimentalTarget: hERG K channel (Homo sapiens (Human))
# Sequence (Q12809 whole entry): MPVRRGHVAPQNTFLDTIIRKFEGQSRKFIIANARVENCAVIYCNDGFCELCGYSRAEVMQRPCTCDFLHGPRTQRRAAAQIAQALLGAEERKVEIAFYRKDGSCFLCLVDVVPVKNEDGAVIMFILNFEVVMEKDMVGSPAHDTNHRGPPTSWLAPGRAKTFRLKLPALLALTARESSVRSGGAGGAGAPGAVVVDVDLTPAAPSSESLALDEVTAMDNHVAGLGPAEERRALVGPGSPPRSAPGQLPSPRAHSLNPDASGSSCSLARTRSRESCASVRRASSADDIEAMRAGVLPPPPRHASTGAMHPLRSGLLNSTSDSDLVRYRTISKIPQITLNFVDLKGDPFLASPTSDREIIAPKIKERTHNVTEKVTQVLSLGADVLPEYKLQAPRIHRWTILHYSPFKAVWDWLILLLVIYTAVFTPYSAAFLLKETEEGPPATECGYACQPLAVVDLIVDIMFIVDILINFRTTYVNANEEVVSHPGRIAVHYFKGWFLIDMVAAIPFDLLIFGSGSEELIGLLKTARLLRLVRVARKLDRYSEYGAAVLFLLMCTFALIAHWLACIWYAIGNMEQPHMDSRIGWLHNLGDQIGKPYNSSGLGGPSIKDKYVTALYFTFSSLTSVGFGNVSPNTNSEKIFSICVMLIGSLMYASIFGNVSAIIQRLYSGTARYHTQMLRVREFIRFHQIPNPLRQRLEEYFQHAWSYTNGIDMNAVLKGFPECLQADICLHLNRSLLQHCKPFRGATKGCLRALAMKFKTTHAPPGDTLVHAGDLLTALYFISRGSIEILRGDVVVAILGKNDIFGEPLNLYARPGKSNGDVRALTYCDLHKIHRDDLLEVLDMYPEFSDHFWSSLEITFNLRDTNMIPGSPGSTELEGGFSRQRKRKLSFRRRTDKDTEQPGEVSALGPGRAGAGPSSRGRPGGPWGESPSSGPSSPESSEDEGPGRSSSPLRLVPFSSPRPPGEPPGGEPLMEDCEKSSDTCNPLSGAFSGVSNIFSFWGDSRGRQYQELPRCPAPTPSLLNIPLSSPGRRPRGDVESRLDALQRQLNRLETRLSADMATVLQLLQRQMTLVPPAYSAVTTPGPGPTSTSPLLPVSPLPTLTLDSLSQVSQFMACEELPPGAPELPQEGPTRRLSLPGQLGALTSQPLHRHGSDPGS
# measurementNotes: hERG Q-Patch assay
# Format: cell-based
# measurementParameters: concentration 300 nM; CHO cells expressing hERG; K+ tail current
quantityKind: % block (%)

In [3]: df
Out[3]:
                                   molecule  unitlabel  endpointvalue
0  CCc1ncn(CC(=O)N2CCN(c3sc(C(F)(F)F)nc3-c3cnc(C(F)(F)F)nc3)C[C@H]2C)n1 [Example 6]          %              5
1  CC(O)c1ncn(CC(=O)N2CCN(c3sc(C(F)(F)F)nc3-c3cnc(C(F)(F)F)nc3)C[C@H]2C)n1 (stereo partly shown) [Example 12]          %              0
2  C[C@@H]1CN(c2sc(C(F)(F)F)nc2-c2cnc(C(F)(F)F)nc2)CCN1C(=O)Cn1cnc(CO)n1 [Example 10]          %              6
3  C[C@@H]1CN(c2sc(C(F)(F)F)nc2-c2cnc(C(F)(F)F)nc2)CCN1C(=O)Cn1cnc(C(N)=O)n1 [Example 5]          %              1
4  CCCc1ncn(CC(=O)N2CCN(c3sc(C(F)(F)F)nc3-c3cnc(C(F)(F)F)nc3)C[C@H]2C)n1 [Example 11]          %              5
5  CC(C)c1ncn(CC(=O)N2CCN(c3sc(C(F)(F)F)nc3-c3cnc(C4CC4)nc3)C[C@H]2C)n1 [Example 16]          %              1
6  C[C@@H]1CN(c2sc(C(F)(F)F)nc2-c2cnc(C(F)(F)F)nc2)CCN1C(=O)Cn1cnc(C(C)(C)O)n1 [Example 13]          %             10
